System: Hela S3 cultured cells
Assay: Effects upon Hela S3 cultured cells (cell count after 72 hours)
Type: cell-based
Conditions: Homo sapiens, HeLa S3, 72 h
Please assign false whenever IC50 is at or above 3 ng/mL, and true whenever it is below.

Worked cases, answers included:
{"compound": "CON=C1C(=O)C2=C(C(=O)C1C)N1C[C@@H]3N[C@@H]3[C@]1(OC)[C@@H]2COC(N)=O (stereo partly drawn)", "class": "false"}
{"compound": "CCCCON=C1C(=O)C2=C(C(=O)C1C)N1C[C@@H]3N[C@@H]3[C@]1(OC)[C@@H]2COC(N)=O (stereo partly drawn)", "class": "false"}
{"compound": "CC(C)CON=C1C(=O)C2=C(C(=O)C1C)N1C[C@H]3[C@H](N3C)[C@]1(O)[C@H]2COC(N)=O (stereo partly drawn)", "class": "false"}

# TODO verify IC50 < 3 ng/mL strictly for this compound: CCC(C)ON=C1C(=O)C2=C(C(=O)C1C)N1C[C@@H]3N[C@@H]3[C@]1(OC)[C@@H]2COC(N)=O (stereo partly drawn)
true

* * *

Assay: in vivo
Conditions: mouse, ip, ddy mice, single abdominal administration, 14 days observation, Behrens-Korber's method
property.name: LD50 at 336 h (mg/kg)
// note: answer is a bare numeric in mg/kg

// known answers, use as guide
{"compound": "CCCCON=C1C(=O)C2=C(C(=O)C1C)N1C[C@@H]3N[C@@H]3[C@]1(OC)[C@@H]2COC(N)=O (some centres unmarked) [Example 4]", "value.unit": "mg/kg", "LD50 at 336 h": 18.8}
{"compound": "CO[C@@]12[C@H](COC(N)=O)C3=C(C(=O)C(C)C(=NOCC(C)C)C3=O)N1C[C@@H]1N[C@@H]12 (some centres unmarked) [Example 2]", "value.unit": "mg/kg", "LD50 at 336 h": 18.8}
{"compound": "CON=C1C(=O)C2=C(C(=O)C1C)N1C[C@@H]3N[C@@H]3[C@]1(OC)[C@@H]2COC(N)=O (some centres unmarked) [Example 1]", "value.unit": "mg/kg", "LD50 at 336 h": 37.5}
{"compound": "CCC(C)ON=C1C(=O)C2=C(C(=O)C1C)N1C[C@@H]3N[C@@H]3[C@]1(OC)[C@@H]2COC(N)=O (some centres unmarked) [Example 3]", "value.unit": "mg/kg", "LD50 at 336 h": 18.8}

Turning now to a further compound:
Which LD50 at 336 h is reported for this compound? CO[C@@]12[C@H](COC(N)=O)C3=C(C(=O)C(C)C(=NOCC(C)C)C3=O)N1C[C@H]1[C@@H]2N1C (some centres unmarked) [Example 5]
60

Values compiled from patent US4791130A.
